- experimental.target: Methyl-CpG-binding domain protein 2 (Homo sapiens) (UniProt Q9UBB5)
- Sequence (Q9UBB5 whole entry, looked up, the tested form may be a part): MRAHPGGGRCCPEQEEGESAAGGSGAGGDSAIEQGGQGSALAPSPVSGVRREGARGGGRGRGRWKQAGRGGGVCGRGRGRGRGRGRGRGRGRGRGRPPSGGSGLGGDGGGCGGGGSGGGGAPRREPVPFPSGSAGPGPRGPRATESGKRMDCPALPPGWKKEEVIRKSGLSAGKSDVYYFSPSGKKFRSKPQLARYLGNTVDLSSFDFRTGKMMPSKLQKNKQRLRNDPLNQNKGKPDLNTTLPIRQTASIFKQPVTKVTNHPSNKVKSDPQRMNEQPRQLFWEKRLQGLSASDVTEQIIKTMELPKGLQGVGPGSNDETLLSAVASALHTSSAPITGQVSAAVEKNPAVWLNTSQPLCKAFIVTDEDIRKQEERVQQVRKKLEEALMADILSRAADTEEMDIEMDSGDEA
- method.description: inhibitors of MBD2 binding to methylated DNA, primary screen, biochemical, TR-FRET, DNA-binding domain, human (AID 686964)
- stated.conditions: MBD2 binding to methylated oligonucleotide, at 4.4 µM, active compounds read high
Hit rate of the full screen: of about 370,000 compounds, about 1,100 (0.3%) were called active. The full list was thinned out, with actives kept by preference.
recorded.endpoint: inhibition (%)

{"compound": "CCOC(=O)c1ccc(-n2c(CCC(=O)O)ccc2-c2ccccc2)cc1", "recorded.endpoint": "inhibition", "obs.value": 14.6}
{"compound": "COCCNC(=O)Nc1ccc2nc(-c3ccco3)c(-c3ccco3)nc2c1", "recorded.endpoint": "inhibition", "obs.value": 53.7}
{"compound": "COC(=O)CC1CCc2cc(C)cc(C(CC(C)C)NC(=O)[C@H](CC(C)C)NC(=O)OCc3ccccc3)c2O1 (stereo partly specified)", "recorded.endpoint": "inhibition", "obs.value": 4.23}
{"compound": "COc1ccc(OCCCC(=O)Nc2cccc(S(=O)(=O)N3CCCCCC3)c2)cc1", "recorded.endpoint": "inhibition", "obs.value": -2.96}
{"compound": "CCc1noc(C)c1C(=O)N1CCN(S(=O)(=O)c2cccc(C(F)(F)F)c2)CC1", "recorded.endpoint": "inhibition", "obs.value": -5.25}
{"compound": "CCn1c2ccccc2c2cc(NC(=O)CSc3nnc(-c4ccccc4)n3-c3ccc(C)cc3)ccc21", "recorded.endpoint": "inhibition", "obs.value": 1.63}

---

- experimental.target: Methyl-CpG-binding domain protein 2 (Homo sapiens)
- method.description: inhibitors of MBD2 binding to methylated DNA, primary screen, biochemical, TR-FRET, DNA-binding domain, human (AID 686964)
- stated.conditions: MBD2 binding to methylated oligonucleotide, at 4.4 µM
Out of some 370,000 compounds screened, about 1,100 (0.3%) were called active. Cut-off read from the data, not from the text of the source: active = inhibition above about 13%; inactive = the rest. Only a selection was taken, and actives are over-represented in it overall.
Outcome codes: active, inactive

{"compound": "CCC(=O)OCCCN1C(=O)CCC12CCC(c1ccccc1)CC2 (centres undefined)", "qualitative.label": "inactive"}
{"compound": "Fc1ccc2nc(COCc3nc4ccc(F)cc4[nH]3)[nH]c2c1", "qualitative.label": "inactive"}
{"compound": "C=CCN(C(=O)[C@@H](CCCC)[C@@H](O)c1ccc(Cl)cc1)c1ccccc1", "qualitative.label": "active"}
{"compound": "CCOc1cc(N2CCOCC2)c(OCC)cc1NC(=O)c1cc(C)nc2ccccc12", "qualitative.label": "active"}
{"compound": "CCOc1ccc(-n2c(SCC(=O)Nc3ccc(OC)cc3)nc3sc4c(c3c2=O)CCN(C)C4)cc1", "qualitative.label": "active"}
{"compound": "COc1cccc(/C=C2\\CC3(OC(C)=O)CCCN2C3)c1 (centres undefined)", "qualitative.label": "inactive"}
{"compound": "CCCCCN1CCCCC(NC(=O)C(C)CCC)C1=O (centres undefined)", "qualitative.label": "inactive"}
{"compound": "CCOc1ccc(NC(=O)c2cc(C)nc3ccccc23)cc1", "qualitative.label": "active"}
{"compound": "Cc1ccc(-c2noc(CCC(=O)Nc3ccccc3N3CCN(C)CC3)n2)cc1", "qualitative.label": "inactive"}

---

- experimental.target: Methyl-CpG-binding domain protein 2 (Homo sapiens) (UniProt Q9UBB5)
- method.description: inhibitors of MBD2 binding to methylated DNA, primary screen, biochemical, TR-FRET, DNA-binding domain, human (AID 686964)
- stated.conditions: MBD2 binding to methylated oligonucleotide, at 4.4 µM, active compounds read high
Out of some 370,000 compounds screened, about 1,100 (0.3%) were called active. Many of the other results were omitted from the sample, so actives are more common in it than they were.
recorded.endpoint: inhibition

{"chemical.string": "CCOC(=O)c1ccccc1NC(=O)COC(=O)CCC(=O)N1CCOCC1", "obs.value": "3.48% (inactive)"}
{"chemical.string": "O=S1(=O)c2c(cccc2N2CCSCC2)Oc2ccccc2CN1Cc1cn(Cc2ccc(F)cc2)nn1", "obs.value": "-0.08% (inactive)"}
{"chemical.string": "COc1ccc(CCNC(=O)CN(c2ccccc2)S(=O)(=O)c2ccccc2)cc1", "obs.value": "2% (inactive)"}

---

The following compounds are shown together with reported inhibition values.
- experimental.target: Methyl-CpG-binding domain protein 2 (Homo sapiens)
- method.description: inhibitors of MBD2 binding to methylated DNA, primary screen, biochemical, TR-FRET, DNA-binding domain, human (AID 686964)
- stated.conditions: MBD2 binding to methylated oligonucleotide, at 4.4 µM, active compounds read high
Screen size: about 370,000 compounds; about 1,100 (0.3%) were called active. The full list was thinned out, with actives kept by preference.
recorded.endpoint: inhibition (%)

{"chemical.string": "C[C@@H]1ON(C)[C@H]2C[C@H]3c4cc(N5CCOCC5)ccc4CCN3C[C@@H]12", "recorded.endpoint": "inhibition", "obs.value": -5.34}
{"chemical.string": "Oc1ccc(/C=C/c2c(F)cccc2F)c2cccnc12", "recorded.endpoint": "inhibition", "obs.value": -0.79}
{"chemical.string": "CCN(Cc1ccncc1)C(=O)c1cccc(S(=O)(=O)N2CCOCC2)c1", "recorded.endpoint": "inhibition", "obs.value": 0.65}
{"chemical.string": "COC(=O)CNc1nc(Cl)nc(N2CCC(C)CC2)n1", "recorded.endpoint": "inhibition", "obs.value": 2.21}

---

- experimental.target: Methyl-CpG-binding domain protein 2 (Homo sapiens)
- method.description: inhibitors of MBD2 binding to methylated DNA, primary screen, biochemical, TR-FRET, DNA-binding domain, human (AID 686964)
- stated.conditions: MBD2 binding to methylated oligonucleotide, at 4.4 µM, active compounds read high
Hit rate of the full screen: of about 370,000 compounds, about 1,100 (0.3%) were called active. This is one part of a sample in which actives are shown more often than they occur.
recorded.endpoint: inhibition

{"molecule": "Cc1ccc(S(=O)(=O)Cn2nnnc2CN2CCN(Cc3ccc4c(c3)OCO4)CC2)cc1", "obs.value": "0.18% (inactive)"}
{"molecule": "COC(=O)c1cccc(NS(C)(=O)=O)c1", "obs.value": "-3.55% (inactive)"}
{"molecule": "O=C(NCc1cccs1)C1CCN(S(=O)(=O)c2ccccc2[N+](=O)[O-])CC1", "obs.value": "0.44% (inactive)"}
{"molecule": "CCCn1c(SCC(=O)Nc2c(C)cccc2C)nnc1C(C)C", "obs.value": "6.66% (inactive)"}
{"molecule": "O=C(NCc1ccc(Cl)cc1)C1CCCN(c2nc3ccccc3o2)C1 (centres undefined)", "obs.value": "-3.29% (inactive)"}
{"molecule": "COc1cccc(CNC(=O)CNS(=O)(=O)c2ccc3nc(C)sc3c2)c1OC", "obs.value": "3.15% (inactive)"}
{"molecule": "COc1ccc(CNC(=O)c2cc(C(=O)C3CC3)c[nH]2)cc1", "obs.value": "1.85% (inactive)"}
{"molecule": "Cc1cccc(NC(=O)C[C@H]2CC[C@H]3[C@@H](COc4ccc(NC(=O)Nc5ccccc5)cc4C(=O)N3C)O2)c1", "obs.value": "14.6% (active)"}
{"molecule": "Brc1ccc(-c2n(-c3ccccn3)c3ccccc3[n+]2-c2ccccn2)cc1", "obs.value": "27.6% (active)"}
{"molecule": "Cn1cnnc1Sc1ccc(CN2CCN(C3CCCC3)C(CCO)C2)o1 (centres undefined)", "obs.value": "-4.49% (inactive)"}
{"molecule": "Cc1ccc(CNC(=O)CC(NC(=O)c2ccccc2)c2ccccc2)cc1 (centres undefined)", "obs.value": "-3.58% (inactive)"}
{"molecule": "COC(=O)c1cccc(C(=O)N2CCCC(Nc3ccc4c(c3)OCCO4)C2)c1 (centres undefined)", "obs.value": "4.97% (inactive)"}
{"molecule": "COc1ccc(CNC(=O)c2c[nH]c3c(OC)cc(OC)cc3c2=O)cc1", "obs.value": "23.4% (active)"}
{"molecule": "CC(=O)Nc1cccc(C(=O)OCN2C(=O)c3ccccc3C2=O)c1", "obs.value": "6.26% (inactive)"}
